Where these numbers come from: PubChem BioAssay (NCI)

Test system: A549 NSCLC
Assay: NCI tumour cell line growth inhibition, 48 h
Where a SMILES comes first, the peptide text is derived from it.
OBSERVABLE: TGI

Consider the worked cases shown below.
[[record]]
compound = "CC1NC(=O)CNC(=O)CNC(=O)C(Cc2ccc(O)cc2)NC(=O)C(C(C)C)NC(=O)C(C)NC1=O (stereo not given) (cyclo(GGAAVY); configuration not given here)"
observable = "TGI"
result = "> 100 µM"

[[record]]
compound = "Cc1ccc(C)c(NC(=O)C(=O)C2C(=O)C3=C(CC2(C)C)Nc2ccccc2S3)c1 (stereo not given)"
observable = "TGI"
result = "> 100 µM"

[[record]]
compound = "CN(C)c1nc(N(C)C)nc(N(C)C)n1"
observable = "TGI"
result = "> 150 µM"


Notebook: "CC/C=C\C[C@H](O)C/C=C1/C(=O)C=C[C@@H]1C/C=C\CCCC(=O)NC(C)C" , TGI read as 9.46 µM

Form: compound = "CCN(CC)CCCN(c1cc(OC)cc2nccnc12)S(=O)(=O)c1ccc(C)cc1" ; TGI = > 100 µM

* * *

# Lookup of reported TGI keyed by entry
Test system: SNB-19 CNS
Experiment: NCI tumour cell line growth inhibition, 48 h

Please review the following examples before continuing.
[[record]]
compound = "CCC1=C(C)/C(=C/c2[nH]c(C)c(C(=O)CCCCC(=O)OC)c2C)N=C1c1ccc[nH]1"
measurement_target = "SNB-19 CNS"
observable = "TGI"
result = "38.4 µM"

[[record]]
compound = "O=C(CCN1CCN(c2cccc(Cl)c2)CC1)N1CCc2c([nH]c3ccccc23)C1c1cccnc1 (configuration not stated)"
measurement_target = "SNB-19 CNS"
observable = "TGI"
result = "26.9 µM"

[[record]]
compound = "O=C1C2C(C(=O)N1O)N(Cc1ccccc1)C(=O)N2Cc1ccccc1 (configuration not stated)"
measurement_target = "SNB-19 CNS"
observable = "TGI"
result = "> 100 µM"


Lab note: "C/C(CN1C(=O)c2ccccc2C1=O)=N\NS(=O)(=O)c1cccc([N+](=O)[O-])c1" gave TGI of > 100 µM

Reported TGI ( "O=C(NN=C1CCN(Cc2ccccc2)CC1)C(O)(c1ccccc1)c1ccccc1" ) = > 100 µM

* * *

Test system: MDA-MB-231 breast
Test: NCI tumour cell line growth inhibition, 48 h
# TGI values compiled below

Known TGI results, listed for orientation:
[[record]]
compound = "O=C(O)CC(C(=O)O)c1ccccc1[N+](=O)[O-] (configuration not stated)"
result = "> 100 µM"

[[record]]
compound = "Cn1c(=O)oc2cc(C(=O)CSC(=S)N3CCCCCC3)ccc21"
result = "> 100 µM"

[[record]]
compound = "CCN(CC)C(=S)SS(=O)(=O)c1ccccc1C(=O)O"
result = "> 100 µM"


Recorded TGI (compound CC(C)(C)OC(=O)[N+](=N)C(=O)C1CCC(=O)N1C(=O)OCc1ccccc1 (configuration not stated) ): > 100 µM

Recorded result, "COc1c2c(c(OC)c3c1c(=O)c1ccccc1n3C)OCO2" , TGI: > 31.6 µM

* * *

Tested on: SW-620 colon
Test: NCI tumour cell line growth inhibition, 48 h
OBSERVABLE: TGI

# annotated cases, reported TGI shown
[[record]]
compound = "COc1cc2oc(=O)cc(C)c2cc1[N+](=O)[O-]"
result = "> 64.1 µM"

[[record]]
compound = "CCC1=C(C)/C(=C/c2[nH]c(C)c(C(=O)CCCCC(=O)OC)c2C)N=C1c1ccc[nH]1"
result = "4.82 µM"

[[record]]
compound = "O=C(O)c1ccc(NC(=O)C2C(=O)C(=O)N(c3ccc(C(=O)O)cc3)C2=O)cc1 (stereo unspecified)"
result = "> 100 µM"

[[record]]
compound = "Cc1ccc(Nc2nc(=S)[nH]c3[nH]ncc23)cc1"
result = "> 100 µM"

[[record]]
compound = "CNc1ccccc1C(=O)N/N=C/C=C/c1ccccc1"
result = "> 100 µM"


Entry "Oc1cccc2c1NC1=C(CCC/C1=C\c1ccccc1)C2" , TGI reported as > 100 µM

Sure, the documented TGI for "CNc1ncnc(Sc2nc(N)nc3nc[nH]c23)c1[N+](=O)[O-]" is 20.6 µM

The reported TGI of the compound CCOC(=O)C1C(=O)CC(O)(OCC)C(C(=O)OCC)C1c1ccc(OC)cc1 (stereo unspecified) was > 100 µM

For NC(N)=NCCCC(N=c1c2ccccc2n(O)c2ccccc12)C(=O)O (stereo unspecified) the compound record lists TGI as > 100 µM

Please fill in: TGI reported for "CC(=O)N1CCC2(C=Nc3ccccc32)CC1" = > 100 µM

Lab book: TGI of "Cc1cc2c(c3c1c1ccccc1n3C)C(=O)C=CC2=O" noted as 28.7 µM

* * *

Test system: KM12 colon
Assay: NCI tumour cell line growth inhibition, 48 h
OBSERVABLE: GI50

[[record]]
chemical_structure = "CCC1=C(C)/C(=C/c2[nH]c(C)c(C(=O)CCCCC(=O)OC)c2C)N=C1c1ccc[nH]1"
result = "16.6 µM"


Record "Nc1ccccc1C#CC#Cc1ccccc1N" . Reported GI50: 8.46 µM

* * *

# maps each entry to its TGI
System: 786-0 renal
Assay: NCI tumour cell line growth inhibition, 48 h

Use these answered entries as a reference point.
[[record]]
molecule = "O=C1c2ccccc2-c2c1c1ccccc1c(=O)n2CCCNCCCn1c2c(c3ccccc3c1=O)C(=O)c1ccccc1-2"
observable = "TGI"
result = "29.8 µM"

[[record]]
molecule = "COc1c2c(c(OC)c3c1c(=O)c1ccccc1n3C)OCO2"
observable = "TGI"
result = "> 100 µM"

[[record]]
molecule = "CS(=O)(=O)c1ccc(Oc2cc(F)cc(C#N)c2)c2c1[C@H](O)[C@H](F)[C@@H]2F"
observable = "TGI"
result = "> 100 µM"


Lab note: molecule CCOP(=O)(OCC)C(NC(=O)OCC(Cl)(Cl)Cl)n1nnc(C(=O)OC)c1C(=O)OC (stereo unspecified) tested on 786-0 renal; recorded TGI was > 100 µM

Noted TGI for "OCCN(CCO)N=Nc1ccc(-c2nc3ccccc3[nH]2)cc1" , tested on 786-0 renal: 56.2 µM

Recorded TGI for "COc1cc2oc(=O)cc(C)c2cc1[N+](=O)[O-]" on 786-0 renal was 49.5 µM

Measured TGI (786-0 renal), entry COc1ccc(-c2ccc(C3CC(c4ccc(O)cc4)=NN3)o2)c([N+](=O)[O-])c1 (stereo unspecified) : > 100 µM

Cc1ccc(C)c(NC(=O)C(=O)C2C(=O)C3=C(CC2(C)C)Nc2ccccc2S3)c1 (stereo unspecified) on 786-0 renal gives TGI = > 100 µM

* * *

Test system: OVCAR-4 ovarian
Experiment: NCI tumour cell line growth inhibition, 48 h
TGI vs 30 µM: at or above is t, below is f.

Worked set:
[[record]]
compound = "CNC(=S)/C(=N\\Nc1nc[nH]c1C(N)=O)C(N)=S"
class_assignment = "t"

[[record]]
compound = "Cc1ccc(NC(c2ccccc2)c2ccc3cccnc3c2O)cc1 (stereo unspecified)"
class_assignment = "f"

[[record]]
compound = "Nc1ccccc1C#CC#Cc1ccccc1N"
class_assignment = "t"


Tell me whether TGI is at least 30 µM here: CCOC(=O)C1C(=O)CC(O)(OCC)C(C(=O)OCC)C1c1ccc(OC)cc1 (stereo unspecified)
t

Exam item: decide whether the reported TGI for "CCCCCCCCCCCCN1C(C)=CS/C1=C\C=C\c1scc(C)[n+]1CCCCCCCCCCCC" is at least 30 µM.
f

Reported TGI at or above 30 µM? COc1ccc(-c2ccc(C3CC(c4ccc(O)cc4)=NN3)o2)c([N+](=O)[O-])c1 (stereo unspecified)
t

* * *

Test system: OVCAR-3 ovarian
Test: NCI tumour cell line growth inhibition, 48 h
We begin with a simple list: items and their reported TGI.

[[record]]
molecule = "CC(Cn1c2c3ccccc3ccc2c2oc(=O)c3ccccc3c21)N(C)C (stereo not drawn)"
measurement_target = "OVCAR-3 ovarian"
observable = "TGI"
result = "> 100 µM"

[[record]]
molecule = "O=[N+]([O-])c1cnc(Sc2ccncn2)c([N+](=O)[O-])c1"
measurement_target = "OVCAR-3 ovarian"
observable = "TGI"
result = "3.17 µM"

[[record]]
molecule = "Cc1c(N2C(=O)/C(=C/C=C/c3ccccc3)N=C2c2ccccc2)c(=O)n(-c2ccccc2)n1C"
measurement_target = "OVCAR-3 ovarian"
observable = "TGI"
result = "46.6 µM"

[[record]]
molecule = "COc1c(CC=C(C)C)c(O)c(C(CC(C)C)c2c(O)c(C(C)=O)c(O)c3c2OC(C(C)(C)O)C3)c(O)c1C(C)=O (stereo not drawn)"
measurement_target = "OVCAR-3 ovarian"
observable = "TGI"
result = "> 12.5 µM"

[[record]]
molecule = "Cn1c(C(N)=O)cc2c1-c1nc(Nc3ccccc3)ncc1CCC2"
measurement_target = "OVCAR-3 ovarian"
observable = "TGI"
result = "57.1 µM"


TGI for COC(=O)C1(C)C=C(Nc2ccccc2)C(=O)N1c1ccccc1 (stereo not drawn) is > 100 µM

According to the records, this molecule "COc1cccc(N2C(=O)c3c(c4[nH]c5ccccc5c4c4ccc(C(C)(C)C)cc34)C2=O)c1" displays TGI of > 100 µM

Lab note: measured TGI of "O=C(OCCN=C1c2ccccc2CCc2ccccc21)c1cc([N+](=O)[O-])cc([N+](=O)[O-])c1" was > 31.6 µM

Noted for "COc1ccc2[nH]c(CCNC(=O)c3cc([N+](=O)[O-])cc([N+](=O)[O-])c3)cc2c1" : its TGI reads > 100 µM

TGI reading for "CN(C)CCNC(=O)c1ccc(Nc2nc3ccccc3c3occc23)cc1" : 7.87 µM
